Measured on: monoclonal antibody CA4
Assay details: competitive ELISA, inhibition of binding of antibody CA4 to structure 1a,b-KLH conjugate
Design: species or system mouse
Condition details: plate coated with structure 1a,b-KLH conjugate
Text: Screening for Antibody Production. In order to screen the fused cells for the production of antibody specific for the cyclic deoxyguanosine adducts, an enzyme-linked immunosorbent assay ("ELISA") may be used. ELISA links soluble antigens to insoluble antibodies or soluble antibodies to solid phase antigens in a manner that allows both immunolgical and enzymatic activity to be retained. ELISA techniques for antigen or antibody quantification are well-known to the art. […]
Form field: pmol of compound needed for 50% inhibition of binding in the competitive ELISA, CA4 (one value per entry).
Measured parameter: pmol of compound needed for 50% inhibition of binding in the competitive ELISA, CA4

Compound: COc1nc(N)nc2c1ncn2[C@H]1C[C@H](O)[C@@H](CO)O1 [reference compound]
Reported: > 100,000 pmol
--
Compound: CC1CC(O)n2c(nc3c(ncn3[C@H]3C[C@H](O)[C@@H](CO)O3)c2=O)N1 (mixture of isomers) [1a]
Reported: 10 pmol
--
Compound: CC1CC(O)n2c(nc3[nH]cnc3c2=O)N1 (centres unmarked) [1,base]
Reported: 30 pmol
--
Compound: O=c1c2ncn([C@H]3C[C@H](O)[C@@H](CO)O3)c2nc2n1C(O)CCN2 (some centres unmarked) [1d]
Reported: 7.9 pmol
--
Compound: O=c1c2ncn([C@H]3C[C@H](O)[C@@H](CO)O3)c2nc2n1C(O)C(O)N2 (some centres unmarked) [1e]
Reported: 41,470 pmol

----------
Measured on: monoclonal antibody CA3
Assay details: competitive ELISA, inhibition of binding of antibody CA3 to structure 1a,b-KLH conjugate
Parameters: species or system mouse
Condition details: plate coated with structure 1a,b-KLH conjugate
If the reported pmol of compound needed for 50% inhibition of binding in the competitive ELISA, CA3 equals or exceeds 10 pmol, assign T. If not, assign F.

Compound: O=c1c2ncn([C@H]3C[C@H](O)[C@@H](CO)O3)c2nc2n1CCC(O)N2 (some centres unmarked)
Assigned category: F

Compound: COc1nc(N)nc2c1ncn2[C@H]1C[C@H](O)[C@@H](CO)O1 [reference compound]
Assigned category: T

Compound: O=c1c2ncn([C@H]3C[C@H](O)[C@@H](CO)O3)c2nc2n1C(O)CCN2 (some centres unmarked)
Assigned category: F

Compound: Nc1nc2c(ncn2[C@H]2C[C@H](O)[C@@H](CO)O2)c(=O)[nH]1 [Deoxyguanosine, reference compound]
Assigned category: T

Compound: CC1CC(O)n2c(nc3c(ncn3[C@H]3C[C@H](O)[C@@H](CO)O3)c2=O)N1 (mixture of isomers) [1a]
Assigned category: F

Compound: CC1CC(O)n2c(nc3[nH]cnc3c2=O)N1 (centres unmarked)
Assigned category: T

Compound: O=c1c2ncn([C@H]3C[C@H](O)[C@@H](CO)O3)c2nc2n1C(O)C(O)N2 (some centres unmarked)
Assigned category: T

----------
Form field: pmol of compound needed for 50% inhibition of binding in the competitive ELISA, CA1 (one value per entry).
Measured on: monoclonal antibody CA1
Assay details: competitive ELISA, inhibition of binding of antibody CA1 to structure 1a,b-KLH conjugate
Design: species or system mouse
Condition details: plate coated with structure 1a,b-KLH conjugate
Measured parameter: pmol of compound needed for 50% inhibition of binding in the competitive ELISA, CA1

Molecule: CC1CC(O)n2c(nc3c(ncn3[C@H]3C[C@H](O)[C@@H](CO)O3)c2=O)N1 (mixture of isomers) [1b]
Measured on: monoclonal antibody CA1
Reported: 0.2 pmol
//
Molecule: Cc1cn([C@H]2C[C@H](O)[C@@H](CO)O2)c(=O)[nH]c1=O [Thymidine, reference compound]
Measured on: monoclonal antibody CA1
Reported: > 100,000 pmol
//
Molecule: O=c1c2ncn([C@H]3C[C@H](O)[C@@H](CO)O3)c2nc2n1C(O)C(O)N2 (stereo partly shown)
Measured on: monoclonal antibody CA1
Reported: 113 pmol
//
Molecule: COc1nc(N)nc2c1ncn2[C@H]1C[C@H](O)[C@@H](CO)O1 [reference compound]
Measured on: monoclonal antibody CA1
Reported: 56,790 pmol

----------
Measured on: monoclonal antibody CA4
Assay details: competitive ELISA, inhibition of binding of antibody CA4 to structure 1a,b-KLH conjugate
Parameters: species or system mouse
Condition details: plate coated with structure 1a,b-KLH conjugate
Form field: pmol of compound needed for 50% inhibition of binding in the competitive ELISA, CA4 (one value per entry).
Measured parameter: pmol of compound needed for 50% inhibition of binding in the competitive ELISA, CA4

Molecule: Cc1cn([C@H]2C[C@H](O)[C@@H](CO)O2)c(=O)[nH]c1=O [Thymidine, reference compound]
Measured on: monoclonal antibody CA4
Reported: > 100,000 pmol

Molecule: Nc1ccn([C@H]2C[C@H](O)[C@@H](CO)O2)c(=O)n1 [Deoxycytosine, reference compound]
Measured on: monoclonal antibody CA4
Reported: > 110,000 pmol

Molecule: CC1CC(O)n2c(nc3c(ncn3[C@H]3C[C@H](O)[C@@H](CO)O3)c2=O)N1 (mixture of isomers) [1b]
Measured on: monoclonal antibody CA4
Reported: 0.9 pmol

Molecule: O=c1c2ncn([C@H]3C[C@H](O)[C@@H](CO)O3)c2nc2n1CCC(O)N2 (stereo partly drawn)
Measured on: monoclonal antibody CA4
Reported: 112 pmol

Molecule: Nc1ncnc2c1ncn2[C@H]1C[C@H](O)[C@@H](CO)O1 [Deoxyadenosine, reference compound]
Measured on: monoclonal antibody CA4
Reported: > 80,000 pmol

Molecule: Nc1nc2c(ncn2[C@H]2C[C@H](O)[C@@H](CO)O2)c(=O)[nH]1 [Deoxyguanosine, reference compound]
Measured on: monoclonal antibody CA4
Reported: 5,370 pmol

----------
Form field: pmol of compound needed for 50% inhibition of binding in the competitive ELISA, CA2 (one value per entry).
Measured on: monoclonal antibody CA2
Assay details: competitive ELISA, inhibition of binding of antibody CA2 to structure 1a,b-KLH conjugate
Parameters: species or system mouse
Condition details: plate coated with structure 1a,b-KLH conjugate
Measured parameter: pmol of compound needed for 50% inhibition of binding in the competitive ELISA, CA2

Molecule: Nc1ccn([C@H]2C[C@H](O)[C@@H](CO)O2)c(=O)n1 [Deoxycytosine, reference compound]
Measured on: monoclonal antibody CA2
Reported: > 110,000 pmol
--
Molecule: O=c1c2ncn([C@H]3C[C@H](O)[C@@H](CO)O3)c2nc2n1C(O)C(O)N2 (some centres unmarked)
Measured on: monoclonal antibody CA2
Reported: 156 pmol
--
Molecule: CC1CC(O)n2c(nc3[nH]cnc3c2=O)N1 (centres unmarked)
Measured on: monoclonal antibody CA2
Reported: 69 pmol
--
Molecule: Nc1nc2c(ncn2[C@H]2C[C@H](O)[C@@H](CO)O2)c(=O)[nH]1 [Deoxyguanosine, reference compound]
Measured on: monoclonal antibody CA2
Reported: 698 pmol
--
Molecule: Cc1cn([C@H]2C[C@H](O)[C@@H](CO)O2)c(=O)[nH]c1=O [Thymidine, reference compound]
Measured on: monoclonal antibody CA2
Reported: > 100,000 pmol
--
Molecule: COc1nc(N)nc2c1ncn2[C@H]1C[C@H](O)[C@@H](CO)O1 [reference compound]
Measured on: monoclonal antibody CA2
Reported: 51,270 pmol
--
Molecule: O=c1c2ncn([C@H]3C[C@H](O)[C@@H](CO)O3)c2nc2n1CCC(O)N2 (some centres unmarked)
Measured on: monoclonal antibody CA2
Reported: 9 pmol
--
Molecule: CC1CC(O)n2c(nc3c(ncn3[C@H]3C[C@H](O)[C@@H](CO)O3)c2=O)N1 (mixture of isomers) [1b]
Measured on: monoclonal antibody CA2
Reported: 0.4 pmol
--
Molecule: O=c1c2ncn([C@H]3C[C@H](O)[C@@H](CO)O3)c2nc2n1C(O)CCN2 (some centres unmarked)
Measured on: monoclonal antibody CA2
Reported: 0.2 pmol
--
Molecule: CC1CC(O)n2c(nc3c(ncn3[C@H]3C[C@H](O)[C@@H](CO)O3)c2=O)N1 (mixture of isomers) [1a]
Measured on: monoclonal antibody CA2
Reported: 17 pmol
--
Molecule: Nc1ncnc2c1ncn2[C@H]1C[C@H](O)[C@@H](CO)O1 [Deoxyadenosine, reference compound]
Measured on: monoclonal antibody CA2
Reported: > 80,000 pmol

----------
Measured on: monoclonal antibody CA1
Assay details: competitive ELISA, inhibition of binding of antibody CA1 to structure 1a,b-KLH conjugate
Parameters: species or system mouse
Condition details: plate coated with structure 1a,b-KLH conjugate
Form field: pmol of compound needed for 50% inhibition of binding in the competitive ELISA, CA1 (one value per entry).
Measured parameter: pmol of compound needed for 50% inhibition of binding in the competitive ELISA, CA1 (pmol)

Compound: O=c1c2ncn([C@H]3C[C@H](O)[C@@H](CO)O3)c2nc2n1CCC(O)N2 (stereo partly shown)
Reported: 90
//
Compound: CC1CC(O)n2c(nc3[nH]cnc3c2=O)N1 (stereo not shown)
Reported: 8.6
//
Compound: O=c1c2ncn([C@H]3C[C@H](O)[C@@H](CO)O3)c2nc2n1C(O)CCN2 (stereo partly shown)
Reported: 0.8
//
Compound: CC1CC(O)n2c(nc3c(ncn3[C@H]3C[C@H](O)[C@@H](CO)O3)c2=O)N1 (mixture of isomers) [1a]
Reported: 12.8

FYI, the data here is from patent US4923813A.
